assay: MELAS cybrid and Rieske KO viability enhancers – cell-based, MELAS cybrids, Rieske KO mouse fibroblasts, CellTiter-Glo, primary screen (AID 1508586); conditions: MELAS cybrid survival, low glucose, CellTiter-Glo 48 h; stronger effect = higher value;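 further: z relative to plate mean and SD of compound and empty wells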
Category key, based on recorded z-score: bin 0: < -0.3; bin 1: ≥ -0.3 and < 0.1; bin 2: ≥ 0.1

• COc1cc2ncnc(Nc3ccc(F)c(Cl)c3)c2cc1NC(=O)C=CCN1CCCCC1 = bin 0
• Cc1cccc(C)c1OCC(=O)NC(Cc1ccccc1)C(O)CC(Cc1ccccc1)NC(=O)C(C(C)C)N1CCCNC1=O (stereo unspecified) = bin 0
• O=C(O)Cc1cc(=O)[nH]c(=O)[nH]1 = bin 2
• Cc1csc(-c2cc(C(=O)NCCCN3CCOCC3)cc(S(=O)(=O)N3CCOCC3)c2)c1 = bin 1
• CCc1nc(NC(=O)N(C)Cc2cccc(-n3cccn3)c2)nn1C = bin 2
• CN(C)c1ccc(C(=O)O)cc1 = bin 0
• CC(NC(=O)C(C#N)=Cc1cccc(Br)n1)c1ccccc1 (stereo unspecified) = bin 2
• O=C(NCC(O)CO)c1ccncc1Nc1ccc(I)cc1F (stereo unspecified) = bin 0
• CC1CCN(CCC2CCCN2S(=O)(=O)c2cccc(O)c2)CC1 (stereo unspecified) = bin 0
• CN(C)CCc1c[nH]c2ccc(CC3COC(=O)N3)cc12 (stereo unspecified) = bin 1
• CC1(C)OC2C[C@H]3[C@@H]4CCC5=CC(=O)C=C[C@]5(C)[C@]4(F)C(O)C[C@]3(C)[C@@]2(C(=O)CO)O1 (stereo partly specified) = bin 0
• CCc1c(C)[nH]n(-c2nn[nH]n2)c1=O = bin 0
• O=C1N[C@@H](Cc2ccccc2)C(=O)N2CCN(C(=O)c3cccs3)C[C@H]12 = bin 1
• COCc1ccc(CN2CCC3(CC2)C(=O)N(C2Cc4ccccc4C2)C(=O)N3CC(C)C)o1 = bin 0
• Cn1nc(C(=O)NCc2cccnc2)c2c1CCN(Cc1ccc3c(c1)Cc1ccccc1-3)C2 = bin 1
• Cc1nsc(NC(=O)NC2Cc3ccccc3C2)n1 = bin 2
• CC(C)n1c(C=CC(O)CC(O)CC(=O)O)c(-c2ccc(F)cc2)c2ccccc21 (stereo unspecified) = bin 2
• C=C[C@]1(C)CC(OC(=O)CSC(C)(C)CNC(=O)C(N)C(C)C)[C@@]2(C)C(C)CC[C@]3(CCC(=O)[C@H]32)C(C)C1O (stereo partly specified) = bin 2
• CCn1ncc(NC(=O)Cn2ccc(-c3ncnn3C)n2)n1 = bin 2
• CCCCNS(=O)(=O)c1ccccc1 = bin 1
• NC1(C(=O)NC(CCO)c2ccc(Cl)cc2)CCN(c2ncnc3[nH]ccc23)CC1 (stereo unspecified) = bin 0

* * *

Each record here notes measured viability.
assay: drug combination growth inhibition, ovarian cancer – cell-based, oncology-focused library, rucaparib conditional, profiling panel (AID 1508598); settings: patient-derived ovarian cancer cells, CellTiter-Glo viability, 144 h; at 0.0781 µM; OCI-P5x cells; without rucaparib; stronger effect = lower value
*1 amine or outer side, *2 acyl side, *3 side chain or, on linkers, in order; H or OH if unused. Where a SMILES comes first, the peptide text is derived from it. Bridges are numbered along the chain shown (N, C = ends). Roman numbers before positions name the chains, in order. [ ]: non-standard residue; d: D form. Hexamethylenediamine = C(CCCN[*:2])CCN[*:1]; Dip = N[C@H](C(=O)O)C(c1ccccc1)c1ccccc1; Chg = N[C@H](C(=O)O)C1CCCCC1; NMeA = CN[C@@H](C)C(=O)O
endpointName: viability (%)

• CC(=O)[C@]1(O)Cc2c(O)c3c(c(O)c2[C@H](O[C@H]2C[C@H](N)[C@H](O)[C@H](C)O2)C1)C(=O)c1ccccc1C3=O = 12.2
• COc1cc([C@H]2c3cc4c(cc3[C@@H](O[C@@H]3O[C@@H]5CO[C@@H](C)O[C@H]5[C@H](O)[C@@H]3O)[C@H]3COC(=O)[C@H]23)OCO4)cc(OC)c1O = 98.6
• Cc1cc(NC(=O)c2cccc(NC(=O)/C=C/CN(C)C)c2)ccc1Nc1nccc(-c2cccnc2)n1 = 109
• Nc1nc(F)nc2c1ncn2[C@H]1O[C@H](CO)[C@@H](O)[C@@H]1O = 113
• C=C1/C(=C/C=C2\CCC[C@@]3(C)[C@H]2CC[C@H]3[C@H](C)/C=C/[C@@H](C)C(C)C)C[C@H](O)C[C@@H]1O = 101
• CC(C)(C(=O)NCC(F)(F)C(F)(F)F)C(=O)N[C@H]1C(=O)Nc2ccccc2-c2ccccc21 = 91.6
• C[C@H](O[C@H]1OCCN(Cc2n[nH]c(=O)[nH]2)[C@H]1c1ccc(F)cc1)c1cc(C(F)(F)F)cc(C(F)(F)F)c1 = 117
• CO[C@H]1C[C@@H]2CC[C@@H](C)[C@@](O)(O2)C(=O)C(=O)N2CCCC[C@H]2C(=O)O[C@H]([C@H](C)C[C@@H]2CC[C@@H](O)[C@H](OC)C2)CC(=O)[C@H](C)/C=C(\C)[C@@H](O)[C@H](OC)C(=O)[C@H](C)C[C@H](C)/C=C/C=C/C=C/1C = 60
• CC(=O)O[C@H]1C(=O)[C@@]2(C)C([C@H](OC(=O)c3ccccc3)[C@]3(O)C[C@H](OC(=O)[C@H](O)[C@@H](NC(=O)c4ccccc4)c4ccccc4)C(C)=C1C3(C)C)[C@]1(OC(C)=O)CO[C@@H]1C[C@H]2O (stereo partly drawn) = 17.4
• CCOC(=O)NCCCC(=O)NCCc1ccccc1 = 99.6
• CN[C@@H](C)C(=O)N[C@H](C(=O)N1CCC[C@H]1C(=O)N[C@H](C(=O)NCCCCCCNC(=O)[C@@H](NC(=O)[C@@H]1CCCN1C(=O)[C@@H](NC(=O)[C@H](C)NC)C1CCCCC1)C(c1ccccc1)c1ccccc1)C(c1ccccc1)c1ccccc1)C1CCCCC1 (I: H-[NMeA][Chg]P[Dip] / II: H-[NMeA][Chg]P[Dip]; linker I:C-II:C via Hexamethylenediamine) = 85.3
• CCOC(=O)c1[nH]c2cc(Cl)ccc2c1C(C(=O)NC(C)(C)C)N(C=O)Cc1ccc(Cl)cc1 (stereo not drawn) = 103
• CCNC(=O)c1noc(-c2cc(Cl)c(O)cc2O)c1-c1ccc(OC)cc1 = 9.14
• CCC(C)(C)C(=O)O[C@@H]1C[C@@H](C)C=C2C=C[C@H](C)[C@@H](CC[C@@H]3C[C@@H](O)CC(=O)O3)[C@H]21 = 66.6
• Cc1cc(C)c(S(=O)(=O)n2cc(C)cc2C)c(C)c1 = 97.7
• COc1cccc(-c2cc(F)ccc2[C@H]2Cc3nc(N)nc(C)c3C(=O)N2)n1 = 7.46
• O=C1[C@H](CC[C@H](O)c2ccc(F)cc2)[C@H](c2ccc(O)cc2)N1c1ccc(F)cc1 = 102
• N[C@@H]1CCCN(c2c(/C=C3\SC(=O)NC3=O)cccc2-c2ccccc2)C1 = 109
• CO[C@H]1C[C@H]2CC[C@@H](C)[C@@](O)(O2)C(=O)C(=O)N2CCCC[C@H]2C(=O)O[C@H]([C@H](C)C[C@@H]2CC[C@H](OC(=O)C(C)(CO)CO)[C@H](OC)C2)CC(=O)[C@H](C)/C=C(\C)[C@@H](O)[C@@H](OC)C(=O)[C@H](C)C[C@H](C)/C=C/C=C/C=C/1C = 56.6
• COc1ccc(C2=N[C@H](c3ccc(Cl)cc3)[C@@H](c3ccc(Cl)cc3)N2C(=O)N2CCNC(=O)C2)c(OC(C)C)c1 = 78.2
• COc1cccc2c1C(=O)c1c(O)c3c(c(O)c1C2=O)C[C@@](O)(C(=O)CO)C[C@H]3O[C@H]1C[C@H](N)[C@H](O)[C@H](C)O1 = 82
• Cc1cc([N+](=O)[O-])ccc1NS(=O)(=O)c1cc(Cl)ccc1Cl = 101
• C=CS(=O)(=O)NC1CCN(C(=O)CNc2cc(I)c(Cl)cc2OC)CC1 = 90.5
• CC1(C)C=C(CN2C/C(=C/c3ccc(F)cc3)C(=O)/C(=C/c3ccc(F)cc3)C2)C(C)(C)N1O = 106
• O=C(NCC1(c2nc(-c3ccccc3)cs2)CCOCC1)c1cccc(-c2noc(C(F)(F)F)n2)c1 = 94.9
• CC#C[C@@]1(O)CC[C@H]2[C@@H]3CCC4=CC(=O)CCC4=C3[C@H](c3ccc(N(C)C)cc3)C[C@@]21C = 86.4
• CC(C)(C)C(=O)Nc1ccc2c(c1)C(=O)C(=O)c1ccccc1-2 = 45.6
• C[C@]12CC[C@H]3c4ccc(O)cc4CC[C@H]3[C@@H]1CCC2=O = 66

* * *

test: viability loss with induced miR-34 in A549 – imaging, A549 dox-inducible miR-34, nuclei and caspase counts, primary screen (AID 1347080); settings: A549 miR-34 inducible, Hoechst nuclei count, 48 h; measured here: total cells without miR-34 induction
Classify as follows. Reported cell count greater than or equal to 9000: Met. Reported cell count below: Not met.

• CCn1ncc(NC(=O)Cn2nc(C)c(-c3cccc(C(C)=O)c3)c2C)n1 = Not met
• Nc1cc(N2CCCCC2)nc(N)[n+]1OS(=O)(=O)[O-] = Not met
• CN[C@H]1[C@@H](O)[C@H](O[C@H]2[C@@H](O)[C@@H](OC3OC(CN)=CCC3N)[C@H](N)C[C@@H]2N)OC[C@@]1(C)O (some centres undefined) = Met
• C[N+](C)(C)CCOP(=O)(O)OP(=O)([O-])OC[C@H]1O[C@@H](n2ccc(N)nc2=O)C(O)[C@H]1O (some centres undefined) = Met
• CC[C@]1(O)CC2CN(CCc3c([nH]c4ccccc34)[C@@](C(=O)OC)(c3cc4c(cc3OC)N(C)C3[C@@](O)(C(N)=O)C(O)[C@]5(CC)C=CCN6CC[C@]43C65)C2)C1 (some centres undefined) = Not met
• O=C(Nc1c[nH]c2ccccc12)c1cc(-c2ccc(F)cc2)n[nH]1 = Not met
• CCc1ccccc1-c1cc(C)nc(N)n1 = Met
• Clc1nccc2c1ccc1ccccc12 = Not met
